Reference for the values: the supplement of paper PMC10567573

B1: KRT18 (parent)
chain: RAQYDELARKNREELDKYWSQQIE

- Variants of: B1
- Measurement Description: protein stability index of a GFP-peptide fusion (GPS, HEK-293T) (PSI 1-6); higher = more stable;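 also: lentivirally expressed fusions sorted by FACS into six bins by GFP to DsRed ratio, PSI derived from sequencing read proportions per bin multiplied by bin number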
- Condition Parameters: c terminus: a fixed tail appended
Readings of protein stability index for the listed variants
Format: numeric value only, no unit, no commentary.

Illustrative cases are given below, each with its answer.
# Variant Name, Readout Number
records = [
    ("K17S", 3.67),
    ("N11T", 2.8),
    ("E14K", 2.94),
    ("D16R", 3.08),
    ("Q3P", 2.94),
    ("R1M", 2.97),
    ("R1Q", 3.07),
    ("Q21Y", 3.08),
    ("W19S", 4.25),
    ("Q3Y", 2.56),
]

### Prompt Return reported protein stability index. Input variant: E13T
### Response 3.82

### Prompt Return reported protein stability index. Input variant: Q21S
### Response 3.4
